Target: recombinant human CK2 (Homo sapiens (Human), UniProt P68400)
Sequence (P68400 whole entry): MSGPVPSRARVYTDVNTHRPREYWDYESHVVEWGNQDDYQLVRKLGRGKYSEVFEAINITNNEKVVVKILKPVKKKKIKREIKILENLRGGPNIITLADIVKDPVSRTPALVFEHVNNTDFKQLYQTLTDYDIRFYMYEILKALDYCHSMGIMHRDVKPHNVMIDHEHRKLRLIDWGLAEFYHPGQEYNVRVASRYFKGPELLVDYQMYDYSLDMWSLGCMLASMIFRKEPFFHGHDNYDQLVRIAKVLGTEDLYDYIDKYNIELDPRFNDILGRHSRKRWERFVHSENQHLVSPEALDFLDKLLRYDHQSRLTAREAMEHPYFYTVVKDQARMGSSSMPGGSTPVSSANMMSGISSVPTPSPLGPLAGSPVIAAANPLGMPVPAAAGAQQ
Sequence (P67870 whole entry partner): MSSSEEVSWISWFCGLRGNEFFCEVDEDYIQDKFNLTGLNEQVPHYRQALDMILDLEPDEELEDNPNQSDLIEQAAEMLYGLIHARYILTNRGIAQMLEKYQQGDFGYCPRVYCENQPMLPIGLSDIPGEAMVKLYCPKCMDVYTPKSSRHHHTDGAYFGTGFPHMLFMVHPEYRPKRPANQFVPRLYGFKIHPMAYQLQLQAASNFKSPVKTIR
Assay: CK2 assay (cell-free, 33P-ATP filter plate)
Assay type: biochemical
Conditions: 10 uM; read-out: CK2 % inhib @ 10 uM
observable: inhibition at 10 µM (%)
Could you give me the number in %? Just the number is fine.

Consider the following illustrative entries.
query: What value of measured inhibition at 10 µM is listed for `COc1ccccc1NC(=O)c1ccc2c(c1)[nH]c(=O)c1ccsc12` ?
result: -7

query: Item under review: `O=C(O)CCNC(=O)c1ccc2c(c1)[nH]c(=O)c1ccsc12` . Reported inhibition at 10 µM?
result: 16

query: Requested read-out: inhibition at 10 µM. Entry: `O=C(NC1CC1)c1ccc2c(c1)[nH]c(=O)c1ccsc12`
result: 0

---
query: Can you look up the measured inhibition at 10 µM of `O=C(Nc1nccs1)c1ccc2c(c1)[nH]c(=O)c1ccsc12` for me?
result: 10

query: Which measured inhibition at 10 µM value corresponds to `O=C(Nc1ccc(Cl)cc1)c1ccc2c(c1)[nH]c(=O)c1ccsc12` ?
result: -10

query: # inhibition at 10 µM lookup, item `O=C(Nc1ccc(N2CCOCC2)cc1)c1ccc2c(c1)[nH]c(=O)c1ccsc12`
result: -3

query: inhibition at 10 µM lookup needed for `NC(=O)c1ccc2c(c1)[nH]c(=O)c1ccsc12` , thanks.
result: -14

query: Quick check: inhibition at 10 µM of `COc1ccc(NC(=O)c2ccc3c(c2)[nH]c(=O)c2ccsc23)c(OC)c1` ?
result: 3

query: Report inhibition at 10 µM for `COC(=O)c1ccc2c(c1)[nH]c(=O)c1ccsc12` please.
result: 17

query: Recorded inhibition at 10 µM of `O=C(c1ccc2c(c1)[nH]c(=O)c1ccsc12)N1CCOCC1` , please.
result: 2

query: Recorded inhibition at 10 µM of `NC1CCN(C(=O)c2ccc3c(c2)[nH]c(=O)c2ccsc23)CC1` , please.
result: -3

query: I would be grateful if you could share the reported inhibition at 10 µM for `O=C(O)c1ccc2c(c1)[nH]c(=O)c1cc(Br)sc12` .
result: 5

* * *

Target: recombinant human CK2 (Homo sapiens (Human), UniProt P68400)
Experiment: CK2 assay (cell-free, 33P-ATP filter plate)
Type: biochemical
Details: 500 nM compound, cell-free assay; read-out: CK2: % inh 500 nM
observable: inhibition at 0.5 µM (%)
# value in %; strip the unit string

query: What value of measured inhibition at 0.5 µM is listed for `NC(=O)c1ccc2c(c1)nc(Nc1cccc(C(F)(F)F)c1)c1ccncc12` ?
result: 34.4

query: Would you mind telling me what inhibition at 0.5 µM value was observed for `c1cc2c(s1)c(NC1CCNCC1)nc1cc(-c3nnn[nH]3)ccc12` ?
result: 53.7

query: For the molecule `CN(C)CCNc1nc2cc(C#N)ccc2c2ccsc12` , what inhibition at 0.5 µM is on record?
result: -16.8

query: I'd like to know its inhibition at 0.5 µM. The molecule in question is `COc1cc(Nc2nc3cc(C(=O)O)ccc3c3cnccc23)cc(OC)c1`
result: 99.4

query: Look up inhibition at 0.5 µM: `Nc1ccc(CCNc2nc3cc(C(=O)O)ccc3c3cnccc23)cc1`
result: 100

query: # inhibition at 0.5 µM lookup, item `CNC(=O)c1ccc2c(c1)nc(NCCN(C)C)c1ccsc12`
result: 8.24
